Let's go through some recorded GI50 values for IGROV1 ovarian together.
attribute-measured: GI50

>>> result("Fc1ccc(-c2nc(-c3nc4ccc(Cl)cc4[nH]3)cc3c2[nH]c2ccccc23)cc1")
"2.89 µM"
>>> result("C=C1CC[C@@H]2C(C)(C)[C@@H](O)CC[C@@]2(C)[C@@H]1COc1ccc2ccc(=O)oc2c1")
"15.1 µM"
>>> result("COc1cc2c(cc1OCCCCNC(=O)c1cc3ccccc3[nH]1)N=CC1CCCN1C2=O (stereo not given)")
"18.1 µM"
>>> result("O=C(Nc1cccc(Cl)c1)Nc1cccc(Cl)c1")
"37.8 µM"
>>> result("O=C(CCCn1c2c(sc3ncccc32)c(=O)n2nnc(-c3ccccc3)c12)NCCc1cnc[nH]1")
"9.54 µM"
